Values from paper PMC8176726

Test system: His6-CssR (Corynebacterium glutamicum RES167), ORF:46f2a94e
Sequence: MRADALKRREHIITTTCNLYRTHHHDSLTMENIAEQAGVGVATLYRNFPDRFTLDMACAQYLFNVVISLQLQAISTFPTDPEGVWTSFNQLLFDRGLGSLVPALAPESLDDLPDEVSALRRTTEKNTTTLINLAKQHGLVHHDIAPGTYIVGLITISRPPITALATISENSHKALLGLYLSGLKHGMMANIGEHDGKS
Assay: EMSA
Conditions: EMSA: 10 mM Tris-HCl pH 7.4, 5 mM MgCl2, 50 mM KCl, 5% glycerol, 0.1% NP40, 1 ug poly(dI:dC), 0.5 mM EDTA, 20 ng DNA in 20 ul, room temperature 30 min
Test Readout: binding

Reference set (5 entries):
INSERT INTO assay_data (sequence_data, measurement_target, readout_value) VALUES
  ('GGTATTGGGCGCATGCCATGTCCAGTGTGAAGCGATCGGGGAAGTTTCGGTATAAAGTTGCAACACCCACTCCTGCCTGTTCTGCAATGTTTTCCATGGTGAGCGAATCGTGATGGTGTGTGCGGTAGAG (double strand) [131-bp cssR coding region control]', 'His6-CssR (Corynebacterium glutamicum RES167), ORF:46f2a94e', 'no binding'),
  ('AACACCGCGAATTATAGACTGAACTGGTACTTGGGAAGCTTTTTATAGTCATATGCGTTGAGATACGTGGACGACAAAGCACCAGTTAGTTGCCTTCCCAGTCCAGCCCACATCCGATTTCTAAATTAGGAGCACATC (double strand) [mtr promoter]', 'His6-CssR (Corynebacterium glutamicum RES167), ORF:46f2a94e', 'no binding'),
  ('GTTGTTGTCCTCTAGTTGACAGCGGGGGTGGTGGTGGTCCTAAAATAGCCTACGATAACTGATAGTGTTTCCTCCACTTACGGAAGAAGATACATGAATACCCCTCTTTTGAGAAGCTCTGGGCTCTCCAT (double strand) [131-bp PcssR]', 'His6-CssR (Corynebacterium glutamicum RES167), ORF:46f2a94e', 'binds'),
  ('GATCACCGCATGTGAAACAAGCGGATACGCAATGAGCATCCCCCACGCCCACTGCACATTAAACACCCAATTCAACACCGCAAAACCCACCAAAAACAGCAGCGTCGCGATCACACAAGCAGCGTCAGATCTTTGCGGCATAGCGCCATC (double strand) [mrx1 promoter]', 'His6-CssR (Corynebacterium glutamicum RES167), ORF:46f2a94e', 'no binding'),
  ('GAAGTTTTTCAAAGTGTCTGACGTTGAAAACGGTGAGTTCACAACTAGGGTGAATGGTGCACGTGATGCTGCACTTTTACGTTTACTACTTTGAGGGAAAC (double strand) [trx promoter]', 'His6-CssR (Corynebacterium glutamicum RES167), ORF:46f2a94e', 'no binding');

-- ask Item CGTAATTATTTCCGCGACAAGCTATTTGCAAGCTATGTGCAGGCTCATTGCACAAGTTCAGCGCGGAGACACGTCCTAAAAAATACTTATGAAATTATGTTCGACACCGAAATGTCACCTGAAACTTCAACCAAGCCGCCAGTGCACCTATTCCACAAACCAAAAAATCCGCCAACACGAATGCGGCGGATTTTTAAGATGTACAGG (double strand) [mshC promoter] has what recorded binding?
-- reply no binding
